The measured values listed here are drawn from ChEMBL document CHEMBL1123743.

test system: Rattus norvegicus; assay: Antisecretory activity was evaluated in acute gastric fistula of rat after peroral administration; type: functional; conditions: Stomach, po
Classification field. Basis: ED50. Definitions: lower level = under 8 mg/kg, middle level = from 8 mg/kg up to 10 mg/kg, upper level = 10 mg/kg and over

{"columns": ["Compound", "Target system", "Cat"],
 "data": [
  ["CC(=O)CCCCCC/N=C/N1CCC(C(c2ccccc2)c2ccccc2)CC1", "Rattus norvegicus", "upper level"],
  ["CC1(CCCCCC/N=C\\N2CCC(C(c3ccccc3)c3ccccc3)CC2)OCCO1.O=C(O)/C=C/C(=O)O", "Rattus norvegicus", "lower level"],
  ["OCCCCCC/N=C/N1CCC(C(c2ccccc2)c2ccccc2)CC1", "Rattus norvegicus", "upper level"]
]}

### Prompt Where would C/C(CCCCCC/N=C\N1CCC(C(c2ccccc2)c2ccccc2)CC1)=N\O.O=S(=O)(O)c1ccc2ccccc2c1 land among the classes by reported ED50?
### Response upper level

### Prompt Where would CC(O)CCCCCC/N=C/N1CCC(C(c2ccccc2)c2ccccc2)CC1 (configuration not stated) land among the classes by reported ED50?
### Response middle level

### Prompt Where would OCCCCCCCC/N=C/N1CCC(C(c2ccccc2)c2ccccc2)CC1 land among the classes by reported ED50?
### Response middle level

### Prompt Where would CCCCCCCC/N=C/N1CCC(C(c2ccccc2)c2ccccc2)CC1 land among the classes by reported ED50?
### Response lower level

### Prompt Where would CCCCCCCC/N=C\N1CCC(C(c2ccccc2)c2ccc(OC)cc2)CC1.O=C(O)/C=C/C(=O)O (configuration not stated) land among the classes by reported ED50?
### Response upper level
